B1: LINE1-full (parent)
chain: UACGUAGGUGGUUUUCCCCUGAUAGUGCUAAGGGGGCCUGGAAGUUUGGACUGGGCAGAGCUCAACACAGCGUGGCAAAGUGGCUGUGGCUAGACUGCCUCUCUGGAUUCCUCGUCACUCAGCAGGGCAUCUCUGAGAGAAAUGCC

variants of: B1; assay: self-cleavage, relative activity (ratio to wild type); higher = more cleavage; in vitro, sequencing; the parent is a self-cleaving ribozyme
readout kind: self-cleavage
Answer using only a numeral; do not append any unit.

Reported self-cleavage, variant U9A U62C : ____
0.09

Reported self-cleavage, variant U119G A136G : ____
0.94

Reported self-cleavage, variant G53A A138G : ____
1.72

Further cases:
Reported self-cleavage, variant U45C G139C : ____
1.63

Reported self-cleavage, variant U132C U134C : ____
1.35

Reported self-cleavage, variant U20A U52G : ____
1.58

Reported self-cleavage, variant G36A A94G : ____
0.34

Reported self-cleavage, variant G54A A79G : ____
0.4
